Test system: Mycobacterium tuberculosis Erdman (autoluminescent)
Experiment: Einf, fitted maximum growth inhibition of three-drug combination (fraction); higher = stronger maximal inhibition
Conditions: in vitro model: acidic pH 5.7; time point: constant (~7 days, model-specific)

COMPOUND	Einf
CC[C@@H](CO)NCCN[C@@H](CC)CO [ethambutol] + NNC(=O)c1ccncc1 [isoniazid] + CO[C@H]1/C=C/O[C@@]2(C)Oc3c(C)c(O)c4c(O)c(c(/C=N/N5CCN(C6CCCC6)CC5)c(O)c4c3C2=O)NC(=O)/C(C)=C\C=C\[C@H](C)[C@H](O)[C@@H](C)[C@@H](O)[C@@H](C)[C@H](OC(C)=O)[C@@H]1C [rifapentine]	0.926
CC(C)/N=c1\cc2n(-c3ccc(Cl)cc3)c3ccccc3nc-2cc1Nc1ccc(Cl)cc1 [clofazimine] + O=[N+]([O-])c1cn2c(n1)OC[C@@H](OCc1ccc(OC(F)(F)F)cc1)C2 [pretomanid] + CO[C@H]1/C=C/O[C@@]2(C)Oc3c(C)c(O)c4c(O)c(c(/C=N/N5CCN(C6CCCC6)CC5)c(O)c4c3C2=O)NC(=O)/C(C)=C\C=C\[C@H](C)[C@H](O)[C@@H](C)[C@@H](O)[C@@H](C)[C@H](OC(C)=O)[C@@H]1C [rifapentine]	0.899
CC[C@@H](CO)NCCN[C@@H](CC)CO [ethambutol] + NC(=O)c1cnccn1 [pyrazinamide] + CO[C@H]1/C=C/O[C@@]2(C)Oc3c(C)c(O)c4c(O)c(c(/C=N/N5CCN(C6CCCC6)CC5)c(O)c4c3C2=O)NC(=O)/C(C)=C\C=C\[C@H](C)[C@H](O)[C@@H](C)[C@@H](O)[C@@H](C)[C@H](OC(C)=O)[C@@H]1C [rifapentine]	0.885

---

Each entry below carries its recorded total FIC50.
Test system: Mycobacterium tuberculosis Erdman (autoluminescent)
Experiment: total FIC50 (Loewe) at 50% inhibition, three-drug combination (log2); higher = more antagonistic
Details: in vitro model: cholesterol 0.05 mM; time point: constant (~7 days, model-specific)

COMPOUND	ASSAYED SYSTEM	total FIC50
COc1nc2ccc(Br)cc2cc1[C@@H](c1ccccc1)[C@@](O)(CCN(C)C)c1cccc2ccccc12 [bedaquiline] + NNC(=O)c1ccncc1 [isoniazid] + COc1c(N2C[C@@H]3CCCN[C@@H]3C2)c(F)cc2c(=O)c(C(=O)O)cn(C3CC3)c12 [moxifloxacin]	Mycobacterium tuberculosis Erdman (autoluminescent)	0.612
NNC(=O)c1ccncc1 [isoniazid] + CC(=O)NC[C@H]1CN(c2ccc(N3CCOCC3)c(F)c2)C(=O)O1 [linezolid] + COc1c(N2C[C@@H]3CCCN[C@@H]3C2)c(F)cc2c(=O)c(C(=O)O)cn(C3CC3)c12 [moxifloxacin]	Mycobacterium tuberculosis Erdman (autoluminescent)	0.796
CC[C@@H](CO)NCCN[C@@H](CC)CO [ethambutol] + O=[N+]([O-])c1cn2c(n1)OC[C@@H](OCc1ccc(OC(F)(F)F)cc1)C2 [pretomanid] + CO[C@H]1/C=C/O[C@@]2(C)Oc3c(C)c(O)c4c(O)c(c(/C=N/N5CCN(C6CCCC6)CC5)c(O)c4c3C2=O)NC(=O)/C(C)=C\C=C\[C@H](C)[C@H](O)[C@@H](C)[C@@H](O)[C@@H](C)[C@H](OC(C)=O)[C@@H]1C [rifapentine]	Mycobacterium tuberculosis Erdman (autoluminescent)	0.946

---

Each entry below carries its recorded Einf.
Tested on: Mycobacterium tuberculosis Erdman (autoluminescent)
Experiment: Einf, fitted maximum growth inhibition of combination (fraction); higher = stronger maximal inhibition
Conditions: in vitro model: intracellular J774; time point: constant = terminal

MOLECULE	ASSAYED SYSTEM	Einf
COc1nc2ccc(Br)cc2cc1[C@@H](c1ccccc1)[C@@](O)(CCN(C)C)c1cccc2ccccc12 [bedaquiline] + NNC(=O)c1ccncc1 [isoniazid]	Mycobacterium tuberculosis Erdman (autoluminescent)	0.98
CC(=O)NC[C@H]1CN(c2ccc(N3CCOCC3)c(F)c2)C(=O)O1 [linezolid] + CO[C@H]1/C=C/O[C@@]2(C)Oc3c(C)c(O)c4c(O)c(c(/C=N/N5CCN(C)CC5)c(O)c4c3C2=O)NC(=O)/C(C)=C\C=C\[C@H](C)[C@H](O)[C@@H](C)[C@@H](O)[C@@H](C)[C@H](OC(C)=O)[C@@H]1C [rifampicin]	Mycobacterium tuberculosis Erdman (autoluminescent)	0.955
NNC(=O)c1ccncc1 [isoniazid] + NC(=O)c1cnccn1 [pyrazinamide]	Mycobacterium tuberculosis Erdman (autoluminescent)	0.964
CC(C)/N=c1\cc2n(-c3ccc(Cl)cc3)c3ccccc3nc-2cc1Nc1ccc(Cl)cc1 [clofazimine] + CO[C@H]1/C=C/O[C@@]2(C)Oc3c(C)c(O)c4c(O)c(c(/C=N/N5CCN(C6CCCC6)CC5)c(O)c4c3C2=O)NC(=O)/C(C)=C\C=C\[C@H](C)[C@H](O)[C@@H](C)[C@@H](O)[C@@H](C)[C@H](OC(C)=O)[C@@H]1C [rifapentine]	Mycobacterium tuberculosis Erdman (autoluminescent)	0.988
CC(=O)NC[C@H]1CN(c2ccc(N3CCOCC3)c(F)c2)C(=O)O1 [linezolid] + O=[N+]([O-])c1cn2c(n1)OC[C@@H](OCc1ccc(OC(F)(F)F)cc1)C2 [pretomanid]	Mycobacterium tuberculosis Erdman (autoluminescent)	0.993
COc1c(N2C[C@@H]3CCCN[C@@H]3C2)c(F)cc2c(=O)c(C(=O)O)cn(C3CC3)c12 [moxifloxacin] + CO[C@H]1/C=C/O[C@@]2(C)Oc3c(C)c(O)c4c(O)c(c(/C=N/N5CCN(C)CC5)c(O)c4c3C2=O)NC(=O)/C(C)=C\C=C\[C@H](C)[C@H](O)[C@@H](C)[C@@H](O)[C@@H](C)[C@H](OC(C)=O)[C@@H]1C [rifampicin]	Mycobacterium tuberculosis Erdman (autoluminescent)	0.985
O=[N+]([O-])c1cn2c(n1)OC[C@@H](OCc1ccc(OC(F)(F)F)cc1)C2 [pretomanid] + CO[C@H]1/C=C/O[C@@]2(C)Oc3c(C)c(O)c4c(O)c(c(/C=N/N5CCN(C)CC5)c(O)c4c3C2=O)NC(=O)/C(C)=C\C=C\[C@H](C)[C@H](O)[C@@H](C)[C@@H](O)[C@@H](C)[C@H](OC(C)=O)[C@@H]1C [rifampicin]	Mycobacterium tuberculosis Erdman (autoluminescent)	0.966
NC(=O)c1cnccn1 [pyrazinamide] + CO[C@H]1/C=C/O[C@@]2(C)Oc3c(C)c(O)c4c(O)c(c(/C=N/N5CCN(C)CC5)c(O)c4c3C2=O)NC(=O)/C(C)=C\C=C\[C@H](C)[C@H](O)[C@@H](C)[C@@H](O)[C@@H](C)[C@H](OC(C)=O)[C@@H]1C [rifampicin]	Mycobacterium tuberculosis Erdman (autoluminescent)	0.989
CC[C@@H](CO)NCCN[C@@H](CC)CO [ethambutol] + NNC(=O)c1ccncc1 [isoniazid]	Mycobacterium tuberculosis Erdman (autoluminescent)	1

---

Test system: Mycobacterium tuberculosis Erdman (autoluminescent)
Assay: AUC25, normalised area under dose response up to IC25 (fraction (0-1)); higher = more potent at low dose
Conditions: in vitro model: valerate; time point: constant (~7 days, model-specific)
Each entry below carries its recorded AUC25.
QUANTITY NAME: AUC25

COMPOUND	ASSAYED SYSTEM	NUMERIC VALUE
CC(C)/N=c1\cc2n(-c3ccc(Cl)cc3)c3ccccc3nc-2cc1Nc1ccc(Cl)cc1 [clofazimine] + CC[C@@H](CO)NCCN[C@@H](CC)CO [ethambutol]	Mycobacterium tuberculosis Erdman (autoluminescent)	0.144
COc1nc2ccc(Br)cc2cc1[C@@H](c1ccccc1)[C@@](O)(CCN(C)C)c1cccc2ccccc12 [bedaquiline] + NNC(=O)c1ccncc1 [isoniazid]	Mycobacterium tuberculosis Erdman (autoluminescent)	0.0996
COc1nc2ccc(Br)cc2cc1[C@@H](c1ccccc1)[C@@](O)(CCN(C)C)c1cccc2ccccc12 [bedaquiline] + NC(=O)c1cnccn1 [pyrazinamide]	Mycobacterium tuberculosis Erdman (autoluminescent)	0.0845

---

Test system: Mycobacterium tuberculosis Erdman (autoluminescent)
Assay: total FIC50 (Loewe) at 50% inhibition, three-drug combination (log2); higher = more antagonistic
Conditions: in vitro model: cholesterol-high 0.2 mM; time point: constant (~7 days, model-specific)
Each entry below carries its recorded total FIC50.

MOLECULE	total FIC50
CC(=O)NC[C@H]1CN(c2ccc(N3CCOCC3)c(F)c2)C(=O)O1 [linezolid] + COc1c(N2C[C@@H]3CCCN[C@@H]3C2)c(F)cc2c(=O)c(C(=O)O)cn(C3CC3)c12 [moxifloxacin] + CO[C@H]1/C=C/O[C@@]2(C)Oc3c(C)c(O)c4c(O)c(c(/C=N/N5CCN(C)CC5)c(O)c4c3C2=O)NC(=O)/C(C)=C\C=C\[C@H](C)[C@H](O)[C@@H](C)[C@@H](O)[C@@H](C)[C@H](OC(C)=O)[C@@H]1C [rifampicin]	0.731
CC[C@@H](CO)NCCN[C@@H](CC)CO [ethambutol] + CC(=O)NC[C@H]1CN(c2ccc(N3CCOCC3)c(F)c2)C(=O)O1 [linezolid] + NC(=O)c1cnccn1 [pyrazinamide]	0.563
